The entries below come with measured enrichment ratio values attached.
B1: PhoQ; a variant is named by its letters at X, in order, P23837 (parent)
chain: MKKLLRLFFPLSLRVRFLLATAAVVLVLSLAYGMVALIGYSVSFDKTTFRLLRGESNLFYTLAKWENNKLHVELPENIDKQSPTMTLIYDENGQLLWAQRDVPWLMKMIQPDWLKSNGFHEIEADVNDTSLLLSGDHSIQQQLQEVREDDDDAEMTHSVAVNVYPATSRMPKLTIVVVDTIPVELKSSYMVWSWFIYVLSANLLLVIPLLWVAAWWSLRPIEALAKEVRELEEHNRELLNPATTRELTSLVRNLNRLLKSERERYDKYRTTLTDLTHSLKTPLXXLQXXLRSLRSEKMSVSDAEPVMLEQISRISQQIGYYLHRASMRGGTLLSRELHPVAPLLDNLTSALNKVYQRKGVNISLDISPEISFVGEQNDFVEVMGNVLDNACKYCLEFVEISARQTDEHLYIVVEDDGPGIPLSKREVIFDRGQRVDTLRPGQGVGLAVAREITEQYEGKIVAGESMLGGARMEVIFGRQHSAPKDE

# Variants of: B1
# method: enrichment ratio after two sorts for PhoP signalling (ratio (wild type AVST 3.29)); higher = more functional
# condition-notes: with PhoP (E. coli)
Whole data set: some 140,000 sequences, median “enrichment ratio after two sorts for PhoP signalling” near 0, cut for the highest 2% near 11. Shown is part of a subset that was picked to be rich in the highest values.
measurement-kind: enrichment ratio

> print(dat)
    residue.change  measurement.kind  measured.value
 1            MLLR  enrichment ratio          ≤ 0.25
 2            ISLA  enrichment ratio          ≤ 0.25
 3            WDVC  enrichment ratio          ≤ 0.25
 4            SAVG  enrichment ratio           0.763
 5            TWNY  enrichment ratio          ≤ 0.25
 6            GLGH  enrichment ratio          ≤ 0.25
 7            NFFS  enrichment ratio          ≤ 0.25
 8            WKER  enrichment ratio          ≤ 0.25
 9            MLEL  enrichment ratio          ≤ 0.25
10            TELN  enrichment ratio            21.6
11            VFSR  enrichment ratio          ≤ 0.25
12            QIAI  enrichment ratio            2.26
13            FALS  enrichment ratio            8.07
14            TTQP  enrichment ratio          ≤ 0.25
15            GESM  enrichment ratio            17.3
16            IALA  enrichment ratio          ≤ 0.25
17            MMAP  enrichment ratio          ≤ 0.25
18            KEDR  enrichment ratio          ≤ 0.25
19            SMEV  enrichment ratio          ≤ 0.25
20            MAHQ  enrichment ratio          ≤ 0.25
21            SFRM  enrichment ratio          ≤ 0.25
22            ELKD  enrichment ratio          ≤ 0.25
23            HTNW  enrichment ratio          ≤ 0.25
24            KDMR  enrichment ratio          ≤ 0.25
25            NTGH  enrichment ratio          ≤ 0.25
26            QIPN  enrichment ratio          ≤ 0.25
27            DCLW  enrichment ratio          ≤ 0.25
28            QESM  enrichment ratio            5.67
29            FALI  enrichment ratio            15.1
30            FLVW  enrichment ratio          ≤ 0.25
31            DTPS  enrichment ratio          ≤ 0.25
32            ISLT  enrichment ratio           0.863
33            TESM  enrichment ratio              30
34            HQYK  enrichment ratio          ≤ 0.25
35            SEAG  enrichment ratio            12.1
36            MVLD  enrichment ratio          ≤ 0.25
37            AACV  enrichment ratio            16.2
38            DDAS  enrichment ratio          ≤ 0.25
39            TELY  enrichment ratio            15.5

Hello, the source for this data is a collection of fitness landscapes (doi:10.1126/science.1257360), in case you need it.
